# Tested on: HCT-15
# method: Antitumor activity against human HCT15 cells after 24 hrs by MTT assay
# Format: functional, cell-based
# test.context: HCT-15, 24 h
Please provide measured IC50 for the entries that follow.
Field format: number, assumed µM, no unit text.

Problem: Data request, read-out IC50, for "COc1cc([C@@H](CC=C(C)C)OC(C)=O)c(OC)c2c1C(=O)C=CC2=O"
Solution: 19.3

Problem: Okay, and COc1ccc(OC)c2c1C(=O)C=C([C@@H](CC=C(C)C)OC(=O)C1CCCO1)C2=O (stereo not given in full) ?
Solution: 12.7

Problem: Okay, and "COc1ccc(OC)c2c1C(=O)C=C([C@@H](CC=C(C)C)OC(C)=O)C2=O" ?
Solution: 29.6

Problem: Okay, and COc1cc([C@@H](CC=C(C)C)OC(=O)C2CCCO2)c(OC)c2c1C(=O)C=CC2=O (stereo not given in full) ?
Solution: 18.6

Problem: Okay, and "CC(C)=CC[C@@H](O)C1=CC(=O)c2c(O)ccc(O)c2C1=O" ?
Solution: 7.3

---

# System: MDA-MB-231
# method: Antitumor activity against human MDA-MB-231 cells after 24 hrs by MTT assay
# Format: functional, cell-based
# test.context: MDA-MB-231, 24 h
metric: IC50 (nM)
Field format: number, assumed nM, no unit text.

Problem: Data request, read-out IC50, for "COc1ccc(OC)c2c1C(=O)C=C([C@@H](CC=C(C)C)OC(C)=O)C2=O"
Solution: 7200

Problem: Okay, and CCC(C)C(=O)O[C@H](CC=C(C)C)c1cc(OC)c2c(c1OC)C(=O)C=CC2=O (some centres undefined) ?
Solution: 5900

Problem: Okay, and "COc1cc([C@@H](CC=C(C)C)OC(=O)CCc2ccccc2)c(OC)c2c1C(=O)C=CC2=O" ?
Solution: 3700

Problem: Okay, and "COc1cc([C@@H](CC=C(C)C)OC(=O)C(C)C)c(OC)c2c1C(=O)C=CC2=O" ?
Solution: 2800

Problem: Okay, and "CCC(=O)O[C@H](CC=C(C)C)c1cc(OC)c2c(c1OC)C(=O)C=CC2=O" ?
Solution: 2500

Problem: Okay, and "COc1cc([C@@H](CC=C(C)C)OC(=O)c2ccc([N+](=O)[O-])cc2)c(OC)c2c1C(=O)C=CC2=O" ?
Solution: 16800

Problem: Okay, and "COc1cc([C@@H](CC=C(C)C)OC(=O)c2ccoc2)c(OC)c2c1C(=O)C=CC2=O" ?
Solution: 400

Problem: Okay, and COc1cc([C@@H](CC=C(C)C)OC(=O)C2CCCO2)c(OC)c2c1C(=O)C=CC2=O (some centres undefined) ?
Solution: 600

Problem: Okay, and COc1ccc(OC)c2c1C(=O)C=C([C@@H](CC=C(C)C)OC(=O)C1CCCO1)C2=O (some centres undefined) ?
Solution: 2100

Problem: Okay, and "COc1ccc(CC(=O)O[C@H](CC=C(C)C)c2cc(OC)c3c(c2OC)C(=O)C=CC3=O)cc1" ?
Solution: 2300

Problem: Okay, and "COc1cc([C@@H](CC=C(C)C)OC(=O)c2ccco2)c(OC)c2c1C(=O)C=CC2=O" ?
Solution: 1300

Problem: Okay, and "CC(C)=CC[C@@H](O)C1=CC(=O)c2c(O)ccc(O)c2C1=O" ?
Solution: 6600

Problem: Okay, and "COc1ccccc1C(=O)O[C@H](CC=C(C)C)c1cc(OC)c2c(c1OC)C(=O)C=CC2=O" ?
Solution: 4400

Problem: Okay, and "COc1ccc(C(=O)O[C@H](CC=C(C)C)c2cc(OC)c3c(c2OC)C(=O)C=CC3=O)cc1" ?
Solution: 1400

Problem: Okay, and "C/C=C/C(=O)O[C@H](CC=C(C)C)c1cc(OC)c2c(c1OC)C(=O)C=CC2=O" ?
Solution: 1500

Problem: Okay, and "CCCC(=O)O[C@H](CC=C(C)C)c1cc(OC)c2c(c1OC)C(=O)C=CC2=O" ?
Solution: 4300

Problem: Okay, and "COc1cc([C@H](O)CC=C(C)C)c(OC)c2c1C(=O)C=CC2=O" ?
Solution: 4100

Problem: Okay, and "COc1ccc(/C=C/C(=O)O[C@H](CC=C(C)C)c2cc(OC)c3c(c2OC)C(=O)C=CC3=O)cc1OC" ?
Solution: 5000

Problem: Okay, and "COc1cc([C@@H](CC=C(C)C)OC(=O)c2cccnc2)c(OC)c2c1C(=O)C=CC2=O" ?
Solution: 6000

Problem: Okay, and "COc1cc([C@@H](CC=C(C)C)OC(=O)c2ccccc2)c(OC)c2c1C(=O)C=CC2=O" ?
Solution: 2200

Problem: Okay, and COc1cc([C@@H](CC=C(C)C)OC(=O)C2CCOC2)c(OC)c2c1C(=O)C=CC2=O (some centres undefined) ?
Solution: 200

Problem: Okay, and "COc1cc([C@@H](CC=C(C)C)OC(=O)/C=C/c2ccccc2)c(OC)c2c1C(=O)C=CC2=O" ?
Solution: 2400

Problem: Okay, and "COc1cc([C@@H](CC=C(C)C)OC(C)=O)c(OC)c2c1C(=O)C=CC2=O" ?
Solution: 3400

Problem: Okay, and "COc1cc([C@@H](CC=C(C)C)OC(=O)c2ccncc2)c(OC)c2c1C(=O)C=CC2=O" ?
Solution: 1200

FYI, the data here is from ChEMBL document CHEMBL1806447.
